# tested target: CypA (Homo sapiens)
# Construct: GST (N, cleaved yes); made in house; host or cells: E. coli (pGEX-KG)
# Sequence (P62937 whole entry): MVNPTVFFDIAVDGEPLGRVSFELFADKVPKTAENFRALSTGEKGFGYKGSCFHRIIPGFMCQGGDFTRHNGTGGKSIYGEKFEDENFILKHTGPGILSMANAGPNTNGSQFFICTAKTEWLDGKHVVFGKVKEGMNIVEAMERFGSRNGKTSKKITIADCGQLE
# method notes: SPR binding of WJCPA-126 or CsA to CypA
# test parameters: SPR-based kinetic analysis, CypA
property measured: pKd
Bear in mind: pKd is minus log10 of a mol/L concentration; give just that figure.

Bench note: what pKd did COc1cc(C(C(=O)NC2CCCCC2)N(C(=O)Cc2c[nH]c3ccccc23)c2ccc(C(C)C)cc2)cc(OC)c1OC (stereo not shown) show?
6.28

###

# method notes: in vitro
# Format: cell-based, hepatitis C virus
# test parameters: genotype 2a JFH1; FIG. 11b
property measured: CC50 (µM)
Report as a plain number; the unit µM is understood.

Bench note: what CC50 did COc1cc(C(C(=O)NC2CCCCC2)N(C(=O)Cc2c[nH]c3ccccc23)c2ccc(C(C)C)cc2)cc(OC)c1OC (stereo not shown) show?
22.3
